Origin of values: patent US20190062438A1

assay target: T1, soluble Homo sapiens CD131 comprising a C-terminal 6xHis tag (human, UniProt P32927 17-438)
T1 construct: truncated after Ser438, C-terminal 6xHis; also called shCD131; shβc
T1 sequence: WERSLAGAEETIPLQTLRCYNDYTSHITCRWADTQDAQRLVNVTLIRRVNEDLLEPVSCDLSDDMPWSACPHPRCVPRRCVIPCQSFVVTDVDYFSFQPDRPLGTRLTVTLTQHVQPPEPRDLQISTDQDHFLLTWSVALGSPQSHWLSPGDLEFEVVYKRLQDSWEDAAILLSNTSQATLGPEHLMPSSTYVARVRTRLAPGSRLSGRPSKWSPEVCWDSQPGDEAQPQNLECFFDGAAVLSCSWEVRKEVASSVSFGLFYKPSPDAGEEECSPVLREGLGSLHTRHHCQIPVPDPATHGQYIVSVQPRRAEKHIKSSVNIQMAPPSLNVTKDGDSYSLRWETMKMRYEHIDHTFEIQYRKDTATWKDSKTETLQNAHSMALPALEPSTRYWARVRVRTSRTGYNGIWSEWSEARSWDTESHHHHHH
method description: SPR, Fab over captured shCD131
measured quantity: koff (s⁻¹)
Number only, in s⁻¹; omit the unit.

Look over these answered cases.
9A2-VR26 Fab (Fab, V domains shown, recombinant Fab) VH: EVQLLESGGGLVQPGGSLRLSCAASGFTFIHYRVHWVRQAPGKGLEWVSSIRSSGGFTYYADSVKGRFTISRDNSKNTLYLQMNSLRAEDTAVYYCARFYDSFFDIWGQGTMVTVSS VL: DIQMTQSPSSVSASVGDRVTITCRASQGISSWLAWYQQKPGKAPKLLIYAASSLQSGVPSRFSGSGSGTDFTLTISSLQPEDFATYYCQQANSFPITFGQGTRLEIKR    0.00055
9A2 Fab (Fab, V domains shown, also called recombinant Fab of 9A2) VH: EVQLLESGGGLVQPGGSLRLSCAASGFTFSHYHMLWVRQAPGKGLEWVSSIRSSGGFTYYADSVKGRFTISRDNSKNTLYLQMNSLRAEDTAVYYCARFYDSFFDIWGQGTMVTVSS VL: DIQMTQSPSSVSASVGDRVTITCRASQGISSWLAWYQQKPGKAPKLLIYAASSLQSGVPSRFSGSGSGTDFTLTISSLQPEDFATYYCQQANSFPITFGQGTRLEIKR    0.096
9A2-VR40 Fab (Fab, V domains shown, recombinant Fab) VH: EVQLLESGGGLVQPGGSLRLSCAASGFTFSHYHMLWVRQAPGKGLEWVSSINGYGIQTYYADSVKGRFTISRDNSKNTLYLQMNSLRAEDTAVYYCARFYDSFFDIWGQGTMVTVSS VL: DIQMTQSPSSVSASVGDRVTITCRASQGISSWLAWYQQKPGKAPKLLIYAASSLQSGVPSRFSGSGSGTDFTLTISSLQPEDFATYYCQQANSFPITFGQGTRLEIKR    0.00066

Exam item: Retrieve koff measured for 9A2-VR24 Fab (Fab, V domains shown, recombinant Fab) VH: EVQLLESGGGLVQPGGSLRLSCAASGFTFPWYRVHWVRQAPGKGLEWVSSIRSSGGFTYYADSVKGRFTISRDNSKNTLYLQMNSLRAEDTAVYYCARFYDSFFDIWGQGTMVTVSS VL: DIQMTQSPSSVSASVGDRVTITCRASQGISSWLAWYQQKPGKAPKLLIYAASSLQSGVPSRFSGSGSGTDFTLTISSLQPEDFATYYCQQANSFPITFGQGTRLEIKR and print it.
Marked response: 0.0011

Exam item: Retrieve koff measured for 9A2-VR39 Fab (Fab, V domains shown, recombinant Fab) VH: EVQLLESGGGLVQPGGSLRLSCAASGFTFSHYHMLWVRQAPGKGLEWVSSINGRGRVTYYADSVKGRFTISRDNSKNTLYLQMNSLRAEDTAVYYCARFYDSFFDIWGQGTMVTVSS VL: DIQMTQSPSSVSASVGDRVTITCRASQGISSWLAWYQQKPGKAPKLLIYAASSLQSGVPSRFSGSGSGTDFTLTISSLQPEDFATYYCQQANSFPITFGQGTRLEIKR and print it.
Marked response: 0.00059

Exam item: Retrieve koff measured for 9A2-VR27 Fab (Fab, V domains shown, recombinant Fab) VH: EVQLLESGGGLVQPGGSLRLSCAASGFTFTHYRVHWVRQAPGKGLEWVSSIRSSGGFTYYADSVKGRFTISRDNSKNTLYLQMNSLRAEDTAVYYCARFYDSFFDIWGQGTMVTVSS VL: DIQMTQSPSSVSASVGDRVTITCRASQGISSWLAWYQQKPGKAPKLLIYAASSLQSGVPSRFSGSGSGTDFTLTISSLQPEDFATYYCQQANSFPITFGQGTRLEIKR and print it.
Marked response: 0.0011

Exam item: Retrieve koff measured for 9A2-VR41 Fab (Fab, V domains shown, recombinant Fab) VH: EVQLLESGGGLVQPGGSLRLSCAASGFTFSHYHMLWVRQAPGKGLEWVSSINGKGWTTYYADSVKGRFTISRDNSKNTLYLQMNSLRAEDTAVYYCARFYDSFFDIWGQGTMVTVSS VL: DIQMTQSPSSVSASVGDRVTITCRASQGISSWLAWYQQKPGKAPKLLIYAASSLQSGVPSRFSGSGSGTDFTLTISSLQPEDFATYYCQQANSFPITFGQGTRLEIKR and print it.
Marked response: 0.00076
